# targetUnderTest: hCEPT1 (human choline/ethanolamine phosphotransferase 1) (Homo sapiens, UniProt Q9Y6K0)
# Sequence (Q9Y6K0 whole entry): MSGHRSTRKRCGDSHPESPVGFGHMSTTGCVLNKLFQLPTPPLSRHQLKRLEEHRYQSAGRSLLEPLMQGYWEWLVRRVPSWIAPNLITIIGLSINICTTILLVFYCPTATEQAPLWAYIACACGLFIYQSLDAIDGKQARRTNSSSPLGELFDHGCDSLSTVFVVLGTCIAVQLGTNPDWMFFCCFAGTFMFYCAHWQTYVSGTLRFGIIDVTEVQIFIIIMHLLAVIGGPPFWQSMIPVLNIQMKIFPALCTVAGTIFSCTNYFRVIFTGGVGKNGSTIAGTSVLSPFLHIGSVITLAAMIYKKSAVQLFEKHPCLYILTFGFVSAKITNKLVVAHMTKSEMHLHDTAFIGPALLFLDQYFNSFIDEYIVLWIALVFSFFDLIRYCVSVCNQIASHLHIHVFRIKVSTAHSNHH
# protocolDetails: isothermal titration calorimetry; cryo-EM structure of the complex
# measurementSetup: read-out: binding affinity
measurementName: Kd (µM)
Numbers only, in µM.

Reported Kd for `C[N+](C)(C)CCOP(=O)(O)OP(=O)([O-])OC[C@H]1O[C@@H](n2ccc(N)nc2=O)[C@H](O)[C@@H]1O` : what is it?
46
